Cited source: ChEMBL document CHEMBL6083258

target: Acetylcholinesterase (Homo sapiens)
Sequence (P22303 whole entry): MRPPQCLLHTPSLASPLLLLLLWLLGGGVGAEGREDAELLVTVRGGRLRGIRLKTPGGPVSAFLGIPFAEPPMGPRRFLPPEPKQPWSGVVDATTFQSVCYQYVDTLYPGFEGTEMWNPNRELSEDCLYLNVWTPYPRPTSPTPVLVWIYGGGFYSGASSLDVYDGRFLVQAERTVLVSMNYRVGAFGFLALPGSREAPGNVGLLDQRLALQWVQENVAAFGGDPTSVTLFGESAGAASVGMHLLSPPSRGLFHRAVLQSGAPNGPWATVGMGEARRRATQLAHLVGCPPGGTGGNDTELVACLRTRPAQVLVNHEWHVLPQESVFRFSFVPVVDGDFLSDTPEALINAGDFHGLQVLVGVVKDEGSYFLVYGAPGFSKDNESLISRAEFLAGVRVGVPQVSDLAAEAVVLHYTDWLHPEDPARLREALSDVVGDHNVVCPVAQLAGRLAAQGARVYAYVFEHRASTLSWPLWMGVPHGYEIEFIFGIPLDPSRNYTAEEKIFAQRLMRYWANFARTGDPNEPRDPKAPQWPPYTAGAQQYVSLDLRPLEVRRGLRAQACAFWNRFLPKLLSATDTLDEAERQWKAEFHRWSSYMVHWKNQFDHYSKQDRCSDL
readout: Ki (µM)
Answer in µM, number only, no unit symbol.

input: Item under review: COCC1=C=C(c2ccc(OC)cc2)c2cc(OC)c(OC)cc2CCN(C)/C=C\1C(=O)OC . Reported Ki?
output: 4.9

----------
readout: IC50 (µM)
Express the result in µM but write the number alone.

input: Acetylcholinesterase (Homo sapiens) / IC50 / COC(=O)/C1=C/N(C)CCc2cc(OC)c(OC)cc2C(C)=C=C1c1ccccc1 : value?
output: 14
